Biological target: T1, melanocortin-1 receptor (mouse (B-16 melanoma cells); in some …, UniProt Q01727 1-315)
T1 construct: whole, on cells; membrane homogenates; also called MC1-R; mouse B16 MC1-R
T1 sequence (Q01727 whole entry): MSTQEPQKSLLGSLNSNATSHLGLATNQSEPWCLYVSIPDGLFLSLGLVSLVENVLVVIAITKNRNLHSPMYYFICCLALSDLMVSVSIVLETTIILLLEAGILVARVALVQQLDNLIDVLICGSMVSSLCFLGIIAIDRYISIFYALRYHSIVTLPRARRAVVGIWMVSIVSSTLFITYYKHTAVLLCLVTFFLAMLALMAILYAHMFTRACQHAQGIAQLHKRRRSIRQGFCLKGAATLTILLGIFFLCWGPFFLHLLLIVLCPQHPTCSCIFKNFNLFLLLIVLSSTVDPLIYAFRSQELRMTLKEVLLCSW
Assay: [I125]-NDP-α-MSH competition, MC1-R membranes
Positions of bridges follow the written chain, without caps; N, C: chain ends. Non-standard residues stand in square brackets, D forms with d. dPhe(4-CN) = N#Cc1ccc(C[C@@H](N)C(=O)O)cc1; dPhe(2-F) = N[C@H](Cc1ccccc1F)C(=O)O; Orn = NCCC[C@H](N)C(=O)O
QUANTITY KIND: pKi
One number for each entry, as −log10 of the molar value.

| BINDER | pKi |
| --- | --- |
| Ac-R[Orn]N[dPhe(2-F)]RWE-NH2 (lactam 2-7, also called No. 71) [Ac-Arg-cyclo(Orn-Asn-D-Phe(2-F)-Arg-Trp-Glu)-NH2] | 6.47 |

Could you now look at the following binder, please?
// lookup pKi for Ac-REE[dPhe(4-CN)]RW[Orn]-NH2 (lactam 2-7; SMILES CC(=O)N[C@@H](CCCNC(=N)N)C(=O)N[C@H]1CCC(=O)NCCC[C@@H](C(N)=O)NC(=O)[C@H](Cc2c[nH]c3ccccc23)NC(=O)[C@H](CCCNC(=N)N)NC(=O)[C@@H](Cc2ccc(C#N)cc2)NC(=O)[C@H](CCC(=O)O)NC1=O) [Ac-Arg-cyclo(Glu-Glu-D-Phe(4-CN)-Arg-Trp-Orn)-NH2]
5.00
